Data provenance: patent US6916793B2

- Test system: BxPC-3
- test: MTT assay, serial dilutions of SeMet on transduced cells
- Format: cell-based
- cond: Homo sapiens, BXPC-3, read-out: SeMet IC50 (μM), BxPC-3 transduced with Control-rAd 4×10^5 pfu
metric: IC50 (µM)
Output spec: scalar in µM, unitless text.

Using the record for `C[Se]CC[C@H](N)C(=O)O` , report its IC50.
223

* * *

- Test system: OVCAR-8
- test: MTT assay, serial dilutions of SeMet on transduced cells
- Format: cell-based, human
- cond: Homo sapiens, OVCAR-8, read-out: SeMet IC50 (μM), OVCAR-8 transduced with rAd-MET 4×10^5 pfu
metric: IC50 (µM)
Output spec: scalar in µM, unitless text.

Identify the measured IC50 of `C[Se]CC[C@H](N)C(=O)O` for OVCAR-8.
0.59
